B1: HDV Ribozyme (parent)
chain: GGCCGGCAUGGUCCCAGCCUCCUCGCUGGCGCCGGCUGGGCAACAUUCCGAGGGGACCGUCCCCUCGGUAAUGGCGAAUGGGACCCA

Variants of: B1
test summary: self-cleavage, relative activity (ratio to wild type); higher = more cleavage; co-transcriptional
Categories are defined by ranges of self-cleavage, namely one = under 0.2, two = from 0.2 up to 0.6, three = 0.6 and over

Tag the class for C15G G53U three

Category of C18U C84A : two

Form: Item = G1U G74C ; Class = ? two

Class? Entry: C36A G54C two

Could you tell me which band C19G G50C belongs to? one

Place this variant in its band: G67A U72G two

Where would C36U U37C land among the classes by reported self-cleavage? three

Given A87C , name the class its self-cleavage places it in. three

Classify this variant: A16G G68C three

Kindly identify the class of C61G C75U . one

GET /class?item= G67A A70U three

Classify this variant: C24G A45G two

Field: class (self-cleavage) — entry: C63U G73A three

State the class of the variant shown: G10U G31C one

Classify this variant: U60G G74U three

Assign a bin to C41G A43C two

Which class does G10U C49A fall in? two

Looking at G50C U79C , which class would you pick? two

Just checking, what class would you give C30A G82U here? one

Form field 'band' for C30A G54U two

Class (by measured self-cleavage) for G29U G55A one

Category of U72C C84U , please. two

Each variant maps to one class by self-cleavage. Which class for G38U U60G ? one

Bin? G28A C57A one

Classify this variant: G40U G68C two

Entry C14U A56U belongs to which category? three

Which class is correct for the following variant? C22G C32U one

Lab log: A8U C26G — assign self-cleavage category three

Form: Item = G2U C30G ; Class = ? one

Would you mind sorting C44A G82U into the appropriate category? one

Each variant maps to one class by self-cleavage. Which class for G1C G50U ? two

Please let me know in which category the item C64G G80U belongs. two

State the band of C13A C85G one

Exam item: assign C4G G74U to the correct category. one

Assign a category based on measured self-cleavage for G50A C75A and give only the class name. one

Band for the recorded self-cleavage of G29U C75U ? one

Please report the category associated with C15U A77G , nothing else. three

Sort C3U G31A into one of the categories. two

Where would C24G G29A land among the classes by reported self-cleavage? one

Band assignment needed for G29C A42U please. one

For the record C30U A77C , report the class its self-cleavage corresponds to. one

Which class is correct for the following variant? C30G U65A one

Band of A43G C61U ? three
